B1: DLC1 (parent)
chain: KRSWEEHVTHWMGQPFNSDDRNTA

variants of: B1; assay: protein stability index of a GFP-peptide fusion (GPS, HEK-293T) (PSI 1-6); higher = more stable; conditions: c terminus: a fixed tail appended;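 note: lentivirally expressed fusions sorted by FACS into six bins by GFP to DsRed ratio, PSI derived from sequencing read proportions per bin multiplied by bin number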
// reported protein stability index per item
measured.endpoint: protein stability index

1. M12L; 2.94
2. R21W; 2.92
3. N17D; 3.03
